pIC50 values by entry
- Test system: L6
- Protocol: Cytotoxicity against rat L6 cells
- Format: cell-based
Please keep in mind that pIC50 is minus log10 of the molar concentration; only the number is needed.

Some solved entries appear below for comparison.
> print(dat)
                         chemical.structure  reported.measurement
1  COc1ccc(CCC(=O)NCCCNCCCCCCCCCCCCNCCCNC(=O)CCc2ccc(OC)c(OC)c2)cc1OC                  4.24
2  COc1ccc(OC)c(C(=O)NCCCNCCCCNCCCNC(=O)c2cc(OC)ccc2OC)c1                  4.12
3  COc1ccc(OC)c(C(=O)NCCCNCCCCCCCCCCCCNCCCNC(=O)c2cc(OC)ccc2OC)c1                  5.66

Lab note: need pIC50 for COc1ccc(OC)c(CC(=O)NCCCN(CCCCCCCCCCCCN(CCCNC(=O)Cc2cc(OC)ccc2OC)C(=O)OC(C)(C)C)C(=O)OC(C)(C)C)c1 on L6, anyone have it? 5.66

Try the molecule O=C(Cc1ccccc1)NCCCNCCCCCCCCNCCCNC(=O)Cc1ccccc1 4.13

Try the molecule COc1ccc(CC(=O)NCCCNCCCCCCCCCCCCNCCCNC(=O)Cc2ccc(OC)cc2)cc1 4.72

Try the molecule O=C(NCCCNCCCCCCCCCCCCNCCCNC(=O)c1ccccc1O)c1ccccc1O 5.60

Try the molecule O=C(NCCCNCCCCCCCCCCCCNCCCNC(=O)c1ccccc1)c1ccccc1 5.16

Try the molecule COc1ccc(OC)c(C(=O)NCCCN(CCCCCCCCCCCCN(CCCNC(=O)c2cc(OC)ccc2OC)C(=O)OC(C)(C)C)C(=O)OC(C)(C)C)c1 5.74

Try the molecule COc1ccc(CCC(=O)NCCCNCCCCNCCCNC(=O)CCc2ccc(OC)c(OC)c2)cc1OC 4.14

###

pIC50 values by entry
- Test system: L6
- Protocol: Cytotoxicity against rat L6 cells
- Format: cell-based
Please keep in mind that pIC50 is minus log10 of the molar concentration; only the number is needed.

Some solved entries appear below for comparison.
> print(dat)
                         chemical.structure  reported.measurement
1  COc1ccc(CCC(=O)NCCCN(CCCCCCCCCCCCN(CCCNC(=O)CCc2ccc(OC)c(OC)c2)C(=O)OC(C)(C)C)C(=O)OC(C)(C)C)cc1OC                  5.60
2  COc1ccc(CC(=O)NCCCN(CCCCCCCCCCCCN(CCCNC(=O)Cc2ccc(OC)cc2)C(=O)OC(C)(C)C)C(=O)OC(C)(C)C)cc1                  5.33
3  CC(C)(C)OC(=O)N(CCCCCCCCCCCCN(CCCNC(=O)Cc1ccccc1O)C(=O)OC(C)(C)C)CCCNC(=O)Cc1ccccc1O                  5.00
4  COc1ccc(OC)c(CC(=O)NCCCNCCCCCCCCCCCCNCCCNC(=O)Cc2cc(OC)ccc2OC)c1                  4.64
5  O=C(NCCCNCCCCNCCCNC(=O)c1ccccc1)c1ccccc1                  4.05

Please give the measured pIC50 for this compound: CC(C)(C)OC(=O)N(CCCCCCCCCCCCN(CCCNC(=O)c1ccccc1)C(=O)OC(C)(C)C)CCCNC(=O)c1ccccc1 5.08

Try the compound COc1ccccc1CC(=O)NCCCNCCCCCCCCCCCCNCCCNC(=O)Cc1ccccc1OC 4.68

Try the compound COc1ccc(OC)c(CCC(=O)NCCCNCCCCNCCCNC(=O)CCc2cc(OC)ccc2OC)c1 4.00

Try the compound CC(C)(C)OC(=O)N(CCCCCCCCCCCCN(CCCNC(=O)c1ccccc1O)C(=O)OC(C)(C)C)CCCNC(=O)c1ccccc1O 4.03

Try the compound O=C(NCCCNCCCCNCCCNC(=O)c1ccccc1O)c1ccccc1O 4.08

Try the compound COc1ccc(OC)c(CC(=O)NCCCN(CCCCCCCCN(CCCNC(=O)Cc2cc(OC)ccc2OC)C(=O)OC(C)(C)C)C(=O)OC(C)(C)C)c1 5.72

Try the compound CC(C)(C)OC(=O)N(CCCCCCCCCCCCN(CCCNC(=O)CCc1ccccc1)C(=O)OC(C)(C)C)CCCNC(=O)CCc1ccccc1 5.40

Try the compound O=C(CCc1ccccc1)NCCCNCCCCCCCCCCCCNCCCNC(=O)CCc1ccccc1 5.16

Try the compound COc1ccc(OC)c(CC(=O)NCCCNCCCCCCCCNCCCNC(=O)Cc2cc(OC)ccc2OC)c1 4.21

Try the compound O=C(Cc1ccccc1O)NCCCNCCCCCCCCCCCCNCCCNC(=O)Cc1ccccc1O 4.38

Try the compound COc1ccc(OC)c(CCC(=O)NCCCN(CCCCCCCCCCCCN(CCCNC(=O)CCc2cc(OC)ccc2OC)C(=O)OC(C)(C)C)C(=O)OC(C)(C)C)c1 5.64

Try the compound CC(C)(C)OC(=O)N(CCCCCCCCN(CCCNC(=O)Cc1ccccc1O)C(=O)OC(C)(C)C)CCCNC(=O)Cc1ccccc1O 4.80

Try the compound COc1ccccc1CC(=O)NCCCN(CCCCCCCCCCCCN(CCCNC(=O)Cc1ccccc1OC)C(=O)OC(C)(C)C)C(=O)OC(C)(C)C 5.57

Try the compound O=C(Cc1ccccc1O)NCCCNCCCCCCCCNCCCNC(=O)Cc1ccccc1O 4.26

###

- System: L6
- Protocol: Cytotoxicity against rat L6 cells
- Type: cell-based
IC50 values by entry
All answers are understood in µM, so give the number only.

Some solved entries appear below for comparison.
> print(dat)
                         chemical.structure  reported.metric  unit.descriptor  reported.measurement
1  O=C(CCc1ccccc1O)NCCCNCCCCCCCCCCCCNCCCNC(=O)CCc1ccccc1O             IC50               µM                    62
2  COc1ccc(OC)c(CCC(=O)NCCCNCCCCCCCCCCCCNCCCNC(=O)CCc2cc(OC)ccc2OC)c1             IC50               µM                   6.5
3  O=C(Cc1ccccc1)NCCCNCCCCCCCCCCCCNCCCNC(=O)Cc1ccccc1             IC50               µM                    22

Please give the measured IC50 for this compound: CC(C)(C)OC(=O)N(CCCCCCCCCCCCN(CCCNC(=O)Cc1ccccc1)C(=O)OC(C)(C)C)CCCNC(=O)Cc1ccccc1 8.2
